- test.summary: Cytotoxicity against human Huh7ET cells at 20 uM by CytoTox-one cell proliferation assay
- Assay type: cell-based
- conditions.used: huh-7, 20 µM
Overview of recorded Cell viability relative to control for various compounds
All answers are understood in %, so give the number only.

{"input.smiles": "CCOC(=O)C1CCN(c2cc3ncc(=O)[nH]c3cc2Nc2nc(-c3ccccc3)cs2)CC1", "unit.abbreviation": "%", "Cell viability relative to control": 59.6}
{"input.smiles": "O=c1cnc2cc(N3CCCCC3)c(Nc3nc(-c4ccccc4)cs3)cc2[nH]1", "unit.abbreviation": "%", "Cell viability relative to control": 35.1}
{"input.smiles": "CCN(c1cc2ncc(=O)[nH]c2cc1Nc1nc(-c2ccccc2)cs1)C1CCCCC1", "unit.abbreviation": "%", "Cell viability relative to control": 58}

Value of measured Cell viability relative to control for the entry `O=c1cnc2cc(N3CCN(c4ccc(F)cc4)CC3)c(Nc3nc(-c4ccccc4)cs3)cc2[nH]1` : 84.3

Value of measured Cell viability relative to control for the entry `O=c1cnc2cc(OC3CCCCC3)c(Nc3nc(-c4ccccc4)cs3)cc2[nH]1` : 74.4
